The measurements presented in this section are drawn from patent US11339161B2.

# test_target: FGFR2 (Homo sapiens, UniProt P21802)
# Sequence (P21802 22-821): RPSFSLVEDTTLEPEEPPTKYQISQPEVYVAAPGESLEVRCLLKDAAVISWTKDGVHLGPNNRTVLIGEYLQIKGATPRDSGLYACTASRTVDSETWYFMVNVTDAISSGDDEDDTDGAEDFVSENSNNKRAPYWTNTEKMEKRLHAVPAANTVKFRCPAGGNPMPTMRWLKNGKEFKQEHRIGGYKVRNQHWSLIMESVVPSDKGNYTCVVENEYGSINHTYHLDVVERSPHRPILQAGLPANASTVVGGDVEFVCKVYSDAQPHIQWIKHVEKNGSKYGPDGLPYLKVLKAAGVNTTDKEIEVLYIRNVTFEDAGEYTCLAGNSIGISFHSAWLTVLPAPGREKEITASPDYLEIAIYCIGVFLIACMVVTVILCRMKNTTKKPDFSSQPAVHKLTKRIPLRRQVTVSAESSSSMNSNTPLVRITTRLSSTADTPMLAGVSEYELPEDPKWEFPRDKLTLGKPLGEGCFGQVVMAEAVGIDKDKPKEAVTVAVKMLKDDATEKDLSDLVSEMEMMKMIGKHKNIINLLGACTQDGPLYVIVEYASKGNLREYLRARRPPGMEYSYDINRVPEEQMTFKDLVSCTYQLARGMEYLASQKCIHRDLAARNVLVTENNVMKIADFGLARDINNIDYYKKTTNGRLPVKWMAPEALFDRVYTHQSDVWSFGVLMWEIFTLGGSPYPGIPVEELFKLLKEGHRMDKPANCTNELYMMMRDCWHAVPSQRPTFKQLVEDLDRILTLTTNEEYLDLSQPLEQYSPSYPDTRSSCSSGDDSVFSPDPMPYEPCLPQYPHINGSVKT
# protocol_description: Z'-LYTE SelectScreen biochemical kinase assay FGFR2
# experimental_parameters: 10 μmolar compound concentration; ATP at Km app; read-out: FGFR2 inhibition
# inhibition at 10 µM annotations

Query :: Tell me the measured inhibition at 10 µM of CCn1ncc2c1CCC(Nc1nc3c(-c4cccnc4OC)cccn3n1)C2 (centres unmarked) , please.
Result :: < 40%

Query :: Now this one: CC1(C)NC(=O)c2ccc(Nc3nc4c(-c5cccc(F)c5)cccn4n3)cc21 [Cpd. 302 in WO09155551, reference compound]
Result :: > 80%

----------
Measured inhibition at 10 µM accompanies every entry in the list below.
# test_target: CSF1R (FMS) (Homo sapiens)
# Sequence (P07333 20-972): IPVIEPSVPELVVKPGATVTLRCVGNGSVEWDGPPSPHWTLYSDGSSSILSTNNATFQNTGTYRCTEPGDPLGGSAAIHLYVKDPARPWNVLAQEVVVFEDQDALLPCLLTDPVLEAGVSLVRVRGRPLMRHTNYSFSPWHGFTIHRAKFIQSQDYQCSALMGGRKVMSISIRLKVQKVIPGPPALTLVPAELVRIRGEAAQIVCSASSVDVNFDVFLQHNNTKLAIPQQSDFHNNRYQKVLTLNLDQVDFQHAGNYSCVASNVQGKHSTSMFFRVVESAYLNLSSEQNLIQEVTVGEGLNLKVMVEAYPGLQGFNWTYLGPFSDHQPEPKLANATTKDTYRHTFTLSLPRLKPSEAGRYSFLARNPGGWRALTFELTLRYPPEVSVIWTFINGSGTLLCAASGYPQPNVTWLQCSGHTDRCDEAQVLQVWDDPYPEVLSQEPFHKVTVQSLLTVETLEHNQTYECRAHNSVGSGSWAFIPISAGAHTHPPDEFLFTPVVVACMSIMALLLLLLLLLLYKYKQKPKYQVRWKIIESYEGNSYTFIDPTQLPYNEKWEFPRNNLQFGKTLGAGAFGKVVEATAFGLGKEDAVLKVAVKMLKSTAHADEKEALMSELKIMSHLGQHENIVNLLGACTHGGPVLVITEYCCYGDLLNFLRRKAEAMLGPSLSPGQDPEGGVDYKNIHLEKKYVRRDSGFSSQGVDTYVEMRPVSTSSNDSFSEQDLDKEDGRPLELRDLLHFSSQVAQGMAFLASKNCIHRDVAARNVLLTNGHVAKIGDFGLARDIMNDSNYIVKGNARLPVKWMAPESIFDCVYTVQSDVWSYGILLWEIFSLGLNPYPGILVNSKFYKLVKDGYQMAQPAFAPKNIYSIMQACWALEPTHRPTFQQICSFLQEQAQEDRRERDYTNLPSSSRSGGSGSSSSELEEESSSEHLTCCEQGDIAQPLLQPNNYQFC
# protocol_description: Z'-LYTE SelectScreen biochemical kinase assay CSF1R (FMS)
# experimental_parameters: read-out: % Inhibition mean CSF1R (FMS)
Write the value in % as a bare number.

Query :: Name the recorded inhibition at 10 µM for CCCn1ncc2c1CCC(Nc1nc3c(-c4ccc(F)cc4C)cccn3n1)C2 (stereo not drawn) .
Result :: 28

Query :: Now the same for CCn1ncc2c1CCC(Nc1nc3c(-c4cnccc4OC)cccn3n1)C2 (stereo not drawn)
Result :: 66

Query :: One more molecule: CCn1ncc2c1CCC(Nc1nc3c(-c4cncc(Cl)c4)cccn3n1)C2 (stereo not drawn)
Result :: 79

Query :: What do we get for CCn1ncc2c1CCC(Nc1nc3c(-c4ccccc4)cccn3n1)C2 (stereo not drawn) ?
Result :: 72

Query :: Now this one: Cc1cc(F)ccc1-c1cccn2nc(NC3CCc4c(cnn4CC(C)C)C3)nc12 (stereo not drawn)
Result :: 40

More entries:
Query :: Given the molecule "CCn1ncc2c1CC[C@H](Nc1nc3c(-c4ccc(F)c(Cl)c4)cccn3n1)C2" , what is its reported inhibition at 10 µM?
Result :: 18

Query :: Another: CCn1ncc2c1CCC(Nc1nc3c(-c4cncc(OC)c4)cccn3n1)C2 (stereo not drawn)
Result :: 83

Query :: Now the molecule Cc1cc(F)ccc1-c1cccn2nc(NC3CCc4c(cnn4C(C)C)C3)nc12 (stereo not drawn)
Result :: 43

Query :: Now give it for "CCn1ncc2c1CC[C@@H](Nc1nc3c(-c4ccc(F)cc4C)cccn3n1)C2" too.
Result :: 31

Query :: Quick one: "Cc1cc(F)ccc1-c1cccn2nc(Nc3ccc4c(cnn4C)c3)nc12"
Result :: 82

----------
# test_target: PTK2 (FAK) (Homo sapiens, UniProt Q05397)
# Sequence (Q05397 whole entry): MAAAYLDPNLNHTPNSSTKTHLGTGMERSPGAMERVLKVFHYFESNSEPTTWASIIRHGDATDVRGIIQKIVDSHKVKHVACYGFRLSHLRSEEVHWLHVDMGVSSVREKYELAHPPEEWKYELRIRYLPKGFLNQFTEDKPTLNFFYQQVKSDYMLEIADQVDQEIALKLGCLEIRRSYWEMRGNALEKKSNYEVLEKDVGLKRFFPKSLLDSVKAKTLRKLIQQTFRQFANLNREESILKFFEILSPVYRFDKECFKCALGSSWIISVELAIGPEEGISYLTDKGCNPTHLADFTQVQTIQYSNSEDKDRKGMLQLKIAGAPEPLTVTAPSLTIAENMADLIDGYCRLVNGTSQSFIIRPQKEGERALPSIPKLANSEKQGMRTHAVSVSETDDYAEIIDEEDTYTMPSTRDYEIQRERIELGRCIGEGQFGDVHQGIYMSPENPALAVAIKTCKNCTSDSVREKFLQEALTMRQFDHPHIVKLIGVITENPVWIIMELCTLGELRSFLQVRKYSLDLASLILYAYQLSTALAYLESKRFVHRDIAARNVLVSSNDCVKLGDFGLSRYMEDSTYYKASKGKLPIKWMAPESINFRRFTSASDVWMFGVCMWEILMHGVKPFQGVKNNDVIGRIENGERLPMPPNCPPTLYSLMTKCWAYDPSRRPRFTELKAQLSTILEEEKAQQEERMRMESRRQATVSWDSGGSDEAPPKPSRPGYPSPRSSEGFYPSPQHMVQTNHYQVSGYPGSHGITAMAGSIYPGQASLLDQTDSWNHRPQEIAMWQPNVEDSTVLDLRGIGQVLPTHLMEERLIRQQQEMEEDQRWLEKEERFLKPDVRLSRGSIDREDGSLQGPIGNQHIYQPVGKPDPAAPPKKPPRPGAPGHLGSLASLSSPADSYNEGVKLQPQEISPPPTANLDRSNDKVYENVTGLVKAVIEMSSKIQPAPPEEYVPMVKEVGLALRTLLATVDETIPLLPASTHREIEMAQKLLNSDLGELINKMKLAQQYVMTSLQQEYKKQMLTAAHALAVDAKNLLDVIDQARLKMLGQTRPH
# protocol_description: Z'-LYTE SelectScreen biochemical kinase assay PTK2 (FAK)
# experimental_parameters: 10 μmolar compound concentration; ATP at Km app; read-out: PTK2 (FAK) inhibition
# Source text: Thermo Fisher Scientific SelectScreen™ Biochemical Kinase Profiling Service Z′-LYTE™ Screening Protocol and Assay Conditions Assay Theory The […] biochemical assay employs a fluorescence-based, coupled-enzyme format and is based on the differential sensitivity of phosphorylated and non-phosphorylated peptides to proteolytic cleavage. […] Both cleaved and uncleaved FRET-peptides contribute to the fluorescence signals and therefore to the Emission Ratio. […]
readout_kind: inhibition at 10 µM

Query :: So what does the record say about inhibition at 10 µM for CCn1ncc2c1CCC(Nc1nc3c(-c4cccnc4OC)cccn3n1)C2 (centres unmarked) ?
Result :: < 40%

Query :: One more molecule: "CCn1ncc2c1CC[C@H](Nc1nc3c(-c4ccc(F)c(Cl)c4)cccn3n1)C2"
Result :: < 40%

Query :: Please give the result for Cc1cc(F)ccc1-c1cccn2nc(NC3CCc4c(cnn4C(C)C)C3)nc12 (centres unmarked) too.
Result :: < 40%

Query :: Now the same for "Cc1cc(F)ccc1-c1cccn2nc(Nc3ccc4c(cnn4C)c3)nc12"
Result :: < 40%

Query :: And what about the molecule CCn1ncc2c1CCC(Nc1nc3c(-c4ccc(F)cc4C)cccn3n1)C2 (centres unmarked) ?
Result :: < 40%

Query :: Record: CCn1ncc2c1CCC(Nc1nc3c(-c4ccc(F)cc4)cccn3n1)C2 (centres unmarked)
Result :: < 40%

Continuing:
Query :: Dear colleague, I am looking for the recorded inhibition at 10 µM of the following molecule: Cc1cc(F)ccc1-c1cccn2nc(NC3CCc4c(cnn4C)C3)nc12 (centres unmarked)
Result :: < 40%

Query :: Same for CC1(C)C(=O)Nc2ccc(Nc3nc4c(-c5cccc(F)c5)cccn4n3)cc21 [Cpd. 263 in WO09155551, reference compound]
Result :: > 80%

----------
# test_target: CDK5/p35 (Homo sapiens, UniProt Q00535)
# Sequence (Q00535 whole entry): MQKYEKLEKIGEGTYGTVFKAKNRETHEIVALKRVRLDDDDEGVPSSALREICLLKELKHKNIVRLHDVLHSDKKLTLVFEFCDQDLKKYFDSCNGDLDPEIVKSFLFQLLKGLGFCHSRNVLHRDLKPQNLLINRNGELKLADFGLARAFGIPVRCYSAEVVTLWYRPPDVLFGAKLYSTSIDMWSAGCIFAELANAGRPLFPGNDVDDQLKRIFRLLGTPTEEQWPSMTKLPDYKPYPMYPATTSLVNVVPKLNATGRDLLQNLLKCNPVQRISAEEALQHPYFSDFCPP
# Sequence (Q15078 whole entry partner): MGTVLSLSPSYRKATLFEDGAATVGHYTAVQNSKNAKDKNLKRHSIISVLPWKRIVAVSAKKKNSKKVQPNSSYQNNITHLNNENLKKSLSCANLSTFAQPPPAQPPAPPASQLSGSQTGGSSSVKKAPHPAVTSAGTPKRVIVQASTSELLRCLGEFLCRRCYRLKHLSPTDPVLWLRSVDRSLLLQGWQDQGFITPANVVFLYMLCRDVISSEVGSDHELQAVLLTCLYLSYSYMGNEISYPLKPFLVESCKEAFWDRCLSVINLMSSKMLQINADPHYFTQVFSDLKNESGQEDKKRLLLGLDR
# protocol_description: Z'-LYTE SelectScreen biochemical kinase assay CDK5/p35
# experimental_parameters: 10 μmolar compound concentration; ATP at Km app; read-out: CDK5/p35 inhibition
Measured inhibition at 10 µM, listed per entry.

Solved cases below.
Query :: Can you look up the measured inhibition at 10 µM of CCn1ncc2c1CCC(Nc1nc3c(-c4ccc(OC)nc4)cccn3n1)C2 (stereo not drawn) for me?
Result :: 40 to 80%

Query :: Again, but for CCn1nc(Cl)c2c1CCC(Nc1nc3c(-c4ccc(F)cc4C)cccn3n1)C2 (stereo not drawn)
Result :: < 40%

Query :: Queued: "CCn1ncc2c1CC[C@@H](Nc1nc3c(-c4ccc(F)cc4C)cccn3n1)C2"
Result :: < 40%

Query :: Note, next up: CCn1ncc2c1CCC(Nc1nc3c(-c4cnccc4OC)cccn3n1)C2 (stereo not drawn)
Result :: 40 to 80%

Query :: And the next one, CCn1ncc2c1CCC(Nc1nc3c(-c4cccc(Cl)c4)cccn3n1)C2 (stereo not drawn) ?
Result :: < 40%

Others:
Query :: Query (molecule): CCn1ncc2c1CCC(Nc1nc3c(-c4cncc(Cl)c4)cccn3n1)C2 (stereo not drawn) ; field requested: inhibition at 10 µM
Result :: 40 to 80%

Query :: How about this molecule: Cc1cc(F)ccc1-c1cccn2nc(NC3CCc4c(cnn4C(C)C)C3)nc12 (stereo not drawn)
Result :: < 40%

Query :: Field entry: CCn1ncc2c1CCC(Nc1nc3c(-c4ccc(F)cc4)cccn3n1)C2 (stereo not drawn)
Result :: < 40%

Query :: What would you report for CCn1ncc2c1C(C)CC(Nc1nc3c(-c4cc(F)c(F)c(F)c4)cccn3n1)C2 (stereo not drawn) ?
Result :: < 40%

----------
# test_target: PTK2 (FAK) (Homo sapiens, UniProt Q05397)
# protocol_description: Z'-LYTE SelectScreen biochemical kinase assay PTK2 (FAK)
# experimental_parameters: 10 μmolar compound concentration; ATP at Km app; read-out: PTK2 (FAK) inhibition
readout_kind: inhibition at 10 µM

Observe how each entry below is paired with its result.
Query :: Look up inhibition at 10 µM for this compound: CCn1ncc2c1CCC(Nc1nc3c(-c4cnccc4OC)cccn3n1)C2 (centres unmarked)
Result :: < 40%

Query :: Then what about the compound CCCCn1ncc2c1CCC(Nc1nc3c(-c4ccc(F)cc4C)cccn3n1)C2 (centres unmarked) ?
Result :: < 40%

Next:
Query :: Please look up its inhibition at 10 µM: Fc1cccc(-c2cccn3nc(Nc4ccc5[nH]cnc5c4)nc23)c1 [Cpd. 293 in WO09155551, reference compound]
Result :: > 80%

Query :: What about "CCn1ncc2c1CC[C@@H](Nc1nc3c(-c4ccc(F)c(Cl)c4)cccn3n1)C2" ?
Result :: < 40%

Query :: Same read-out for CCn1nnc2c1CCC(Nc1nc3c(-c4ccc(F)cc4C)cccn3n1)C2 (centres unmarked) ?
Result :: < 40%

----------
Collected inhibition at 10 µM values appear next to each entry.
# test_target: UniProt:Q05397
# protocol_description: Z'-LYTE SelectScreen biochemical kinase assay PTK2 (FAK)
# experimental_parameters: read-out: % Inhibition mean PTK2 (FAK)
API: value field is a number in %; no unit string.

Query :: # query: inhibition at 10 µM of entry CCn1ncc2c1CC[C@@H](Nc1nc3c(-c4ccc(F)cc4C)cccn3n1)C2 [Example R-42]
Result :: 28

Further cases:
Query :: Entry under review: CCCCCn1ncc2c1CCC(Nc1nc3c(-c4ccc(F)cc4C)cccn3n1)C2 (centres unmarked) [Example 47] . Reported inhibition at 10 µM?
Result :: 19

Query :: Please do the same for CCn1ncc2c1CCC(Nc1nc3c(-c4cncc(OC)c4)cccn3n1)C2 (centres unmarked) [Example 70] as well.
Result :: 14

Query :: Check CCn1ncc2c1CCC(Nc1nc3c(-c4cnccc4OC)cccn3n1)C2 (centres unmarked) [Example 68] too.
Result :: 28

Query :: Same for CCn1ncc2c1CCC(Nc1nc3c(-c4cccnc4)cccn3n1)C2 (centres unmarked) [Example 63]
Result :: 13

----------
# test_target: FLT4 (VEGFR3) (Homo sapiens)
# Sequence (P35916 25-1363): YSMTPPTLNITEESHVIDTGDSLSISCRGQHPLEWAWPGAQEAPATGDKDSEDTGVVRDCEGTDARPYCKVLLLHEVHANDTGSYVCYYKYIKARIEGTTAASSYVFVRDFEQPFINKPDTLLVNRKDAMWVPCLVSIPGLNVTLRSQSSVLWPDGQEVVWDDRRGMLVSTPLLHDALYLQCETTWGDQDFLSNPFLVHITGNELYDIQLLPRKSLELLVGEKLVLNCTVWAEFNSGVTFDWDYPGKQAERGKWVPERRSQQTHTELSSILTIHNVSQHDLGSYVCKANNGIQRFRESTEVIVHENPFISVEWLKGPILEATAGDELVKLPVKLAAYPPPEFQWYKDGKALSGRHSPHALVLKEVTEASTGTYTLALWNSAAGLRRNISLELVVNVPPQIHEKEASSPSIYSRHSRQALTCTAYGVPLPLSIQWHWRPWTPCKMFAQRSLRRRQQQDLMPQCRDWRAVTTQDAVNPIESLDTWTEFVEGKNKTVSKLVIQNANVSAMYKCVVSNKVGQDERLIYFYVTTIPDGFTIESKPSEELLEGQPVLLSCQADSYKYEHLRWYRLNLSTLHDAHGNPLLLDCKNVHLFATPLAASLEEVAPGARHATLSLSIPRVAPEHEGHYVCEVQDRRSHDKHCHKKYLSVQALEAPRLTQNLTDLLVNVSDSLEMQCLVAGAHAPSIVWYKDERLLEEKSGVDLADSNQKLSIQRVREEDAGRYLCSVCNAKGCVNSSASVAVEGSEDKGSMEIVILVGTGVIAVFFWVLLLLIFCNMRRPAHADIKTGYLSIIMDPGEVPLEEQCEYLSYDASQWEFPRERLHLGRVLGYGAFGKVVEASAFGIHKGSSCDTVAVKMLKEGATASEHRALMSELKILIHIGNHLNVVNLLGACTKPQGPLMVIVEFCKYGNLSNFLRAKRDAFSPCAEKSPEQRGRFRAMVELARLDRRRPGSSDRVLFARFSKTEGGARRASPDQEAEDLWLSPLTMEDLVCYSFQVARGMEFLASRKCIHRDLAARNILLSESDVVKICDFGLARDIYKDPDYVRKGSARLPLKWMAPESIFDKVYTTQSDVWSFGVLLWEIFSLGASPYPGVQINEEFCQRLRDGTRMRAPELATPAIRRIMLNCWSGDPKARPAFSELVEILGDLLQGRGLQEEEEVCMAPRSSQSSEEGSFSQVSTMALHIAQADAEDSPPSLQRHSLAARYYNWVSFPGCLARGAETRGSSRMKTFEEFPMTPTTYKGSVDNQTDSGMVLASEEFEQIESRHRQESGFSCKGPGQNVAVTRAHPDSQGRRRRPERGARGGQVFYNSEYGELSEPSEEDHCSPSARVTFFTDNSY
# protocol_description: Z'-LYTE SelectScreen biochemical kinase assay FLT4 (VEGFR3)
# experimental_parameters: 10 μmolar compound concentration; ATP at Km app; read-out: FLT4 (VEGFR3) inhibition
readout_kind: inhibition at 10 µM

Worked examples follow.
Query :: Tell me the measured inhibition at 10 µM of CCn1nnc2c1CCC(Nc1nc3c(-c4ccc(F)cc4C)cccn3n1)C2 (stereo not drawn) , please.
Result :: < 40%

Query :: Let us now turn to Cc1cc(F)ccc1-c1cccn2nc(NC3CCc4c(cnn4C(C)C)C3)nc12 (stereo not drawn)
Result :: 40 to 80%

Query :: Now this one: Cc1cc(F)ccc1-c1cccn2nc(NC3CCc4c(cnn4C)C3)nc12 (stereo not drawn)
Result :: < 40%

Query :: Do the same for CCn1ncc2c1CCC(Nc1nc3c(-c4ccc(C)nc4)cccn3n1)C2 (stereo not drawn) please
Result :: < 40%

Further cases:
Query :: Look at this compound and give its reported inhibition at 10 µM. "CCn1ncc2c1CC[C@H](Nc1nc3c(-c4ccc(F)c(Cl)c4)cccn3n1)C2"
Result :: < 40%

Query :: Next record, please: CCn1ncc2c1CCC(Nc1nc3c(-c4cccnc4OC)cccn3n1)C2 (stereo not drawn)
Result :: < 40%

Query :: Same for "Cc1cc(F)ccc1-c1cccn2nc(Nc3ccc4c(cnn4C)c3)nc12"
Result :: > 80%

Query :: Then this compound: "CCn1ncc2c1CC[C@@H](Nc1nc3c(-c4ccc(F)cc4C)cccn3n1)C2"
Result :: < 40%

Query :: Repeat for the following compound: CCn1ncc2c1CCC(Nc1nc3c(-c4cncc(Cl)c4)cccn3n1)C2 (stereo not drawn)
Result :: 40 to 80%

Query :: Another compound to check: CCc1nn(C)c2c1CCC(Nc1nc3c(-c4ccc(F)cc4C)cccn3n1)C2 (stereo not drawn)
Result :: < 40%

Query :: Next record, please: CCn1ncc2c1CCC(Nc1nc3c(-c4ccc(F)cc4)cccn3n1)C2 (stereo not drawn)
Result :: 40 to 80%

Query :: Then what about the compound CCn1nc(Cl)c2c1CCC(Nc1nc3c(-c4ccc(F)cc4C)cccn3n1)C2 (stereo not drawn) ?
Result :: < 40%
